system: S. aureus ATCC 6538; test: Bactericidal activity test (MBC measurement); format: cell-based, Staphylococcus aureus; conditions: Staphylococcus aureus, ATCC6538, 0.05 h; S. aureus ATCC 6538, action time 3 min; read-out: MBC
Please note: MBC exactly at 10 mg/L is n. Only values below 10 mg/L get y.

CCCCCCCCCCNC1=NC(N2Cc3ccccc3C2)=NC(C)(C)N1: y
CCCCCCCCN(C)C1=NC(C)(C)NC(NCc2ccc(Cl)cc2)=N1 [Example 1, acetate]: y
CCCCCCCCCCNC1=NC(C)(C)NC(N(C)CCC)=N1: n
CC(=O)O.CCCCCCCCN(C)C1=NC(C)(C)NC(NCc2ccc(Cl)c(Cl)c2)=N1: n
CCCCCCCCCCCCNC1=NC(N2CCOCC2)=NCN1: y

# TODO verify MBC < 10 mg/L strictly for this compound: `CCCCCCCCCCCCCCN(C)C1=NC(C)(C)NC(N)=N1.Cl`
y

Threshold test, MBC < 10 mg/L: `CCCCCCCCNC1=NC(C)(C)NC(N(C)CCc2ccccc2)=N1`
n

Please determine if `CCCCCCCCN(C)C(=N)/N=C(\N)NCc1ccc(Cl)cc1.Cl` is below 10 mg/L in terms of MBC.
n

Say whether its MBC is strictly beneath 10 mg/L. Entry: `CC(=O)O.CCCCCCCCCCNC1=NC(N2CCCCC2)=NC(C)(C)N1`
n

I wonder whether `CCCCCCCCCNC(=N)NC(=N)N(C)Cc1ccccc1.Cl.Cl` has MBC below 10 mg/L. Can you tell?
n

# TODO verify MBC < 10 mg/L strictly for this compound: `CCCCCCCCN(C)C(=N)NC(=N)NCc1ccc(Cl)c(Cl)c1.Cl`
n
